Molecular target: human Y1 -receptor (Homo sapiens, UniProt P25929)
Construct: endoge- nously expressing Y1 and Y2 receptors; endogenous in cells
Sequence (P25929 1-384): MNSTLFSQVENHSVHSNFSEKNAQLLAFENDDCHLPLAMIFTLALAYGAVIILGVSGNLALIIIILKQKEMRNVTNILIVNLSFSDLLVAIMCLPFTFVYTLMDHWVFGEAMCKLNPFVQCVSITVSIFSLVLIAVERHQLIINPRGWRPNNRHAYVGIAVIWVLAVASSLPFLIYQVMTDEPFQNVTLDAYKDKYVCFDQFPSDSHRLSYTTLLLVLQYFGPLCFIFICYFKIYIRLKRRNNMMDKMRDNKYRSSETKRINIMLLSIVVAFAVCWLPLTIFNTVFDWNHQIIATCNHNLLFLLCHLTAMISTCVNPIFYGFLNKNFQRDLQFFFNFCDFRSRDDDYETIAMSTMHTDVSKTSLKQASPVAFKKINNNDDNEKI
Assay: Receptor binding to SK-N-MC cells ([125I]-Bolton-Hunter-NPY displacement)
Details: Table 1
Sorting guide: entries reporting IC50 beneath 3 nM go in the MET pile, the rest go in the NOT MET pile.

>>> category_label("COc1ccc2cc(C(=O)N[C@H](CCCNC(=N)N)C(=O)NCc3ccc(CNC(N)=O)cc3)ccc2c1")
"NOT MET"
>>> category_label("COC(=O)COc1ccc(C(C(=O)N[C@H](CCCNC(=N)N)C(=O)NCc2ccc(CNC(N)=O)cc2)c2ccc(O)cc2)cc1 (some centres unmarked)")
"MET"
>>> category_label("N=C(N)NCCC[C@@H](NC(=O)Cc1cc(Cl)c(N)c(Cl)c1)C(=O)NCc1ccc(CNC(N)=O)cc1")
"NOT MET"
>>> category_label("CCOC(=O)NC(=O)NCc1ccc(CNC(=O)[C@@H](CCCNC(=N)N)NC(=O)C(c2ccccc2)c2ccccc2)cc1")
"MET"
>>> category_label("CN(Cc1ccc(CNC(N)=O)cc1)C(=O)[C@@H](CCCNC(=N)N)NC(=O)C(c1ccccc1)c1ccccc1")
"NOT MET"
>>> category_label("NC(=O)Cc1ccc(CNC(=O)[C@@H](CCCNc2ncc[nH]2)NC(=O)C(c2ccccc2)c2ccccc2)cc1")
"NOT MET"
>>> category_label("CCOC(=O)NCc1ccc(CNC(=O)[C@@H](CCCNC(=N)N)NC(=O)C(c2ccccc2)c2ccccc2)cc1")
"NOT MET"

Data provenance: patent US6114390A
